The origin of these recorded values is patent US20170081400A1.

Biological target: T1, human TL1A extracellular domain with N-terminal HIS and FLAG tag (human, UniProt O95150 72-251)
T1 construct: the whole entry is named
T1 sequence: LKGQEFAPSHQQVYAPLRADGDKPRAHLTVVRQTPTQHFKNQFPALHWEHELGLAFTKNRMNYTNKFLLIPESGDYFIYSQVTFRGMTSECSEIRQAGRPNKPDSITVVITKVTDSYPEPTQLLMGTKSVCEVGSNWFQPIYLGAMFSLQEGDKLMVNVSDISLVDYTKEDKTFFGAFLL
Test: SPR Run 4, purified Ab captured on Protein A, TL1A 5 ug/mL, timepoint 220
Experimental: 1.5. Antibody expression and antigen binding as determined by SPR. Using a CM5 sensor chip (GE Healthcare) Protein A (Pierce) was coupled to the chip surface using an amine coupling kit (GE Healthcare). Protein A was coupled on flow cell 1 and 2 (or alternatively 3 and 4) using a BIACORE® T200. […] At the end of injection of the supernatant or purified antibody the change in response units was measured. […] The response units were measured prior to the end of the dissociation phase. […]
measure_name: TL1A Binding Level (Late) (RU)
The reply should be a number in RU, with the unit left off.

binder | TL1A Binding Level (Late) / RU
320-316 (antibody, human IgG1, name in Kabat numbering, V domains shown, human IgG1, lambda) VH: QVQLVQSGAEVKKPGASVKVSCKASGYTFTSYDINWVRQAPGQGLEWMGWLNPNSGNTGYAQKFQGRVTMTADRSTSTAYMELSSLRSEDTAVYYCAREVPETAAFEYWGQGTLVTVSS VL: QSVLTQPPSVSGAPGQRVTISCTSSSSDIGAGLGVHWYQQLPGTAPKLLIEGYYNRPSGVPDRFSGSKSGTSASLTITGLLPEDEGDYYCWSYDGTLSALFGGGTKLTVLG | 62
320-348 (antibody, human IgG1, name in Kabat numbering, V domains shown, human IgG1, lambda) VH: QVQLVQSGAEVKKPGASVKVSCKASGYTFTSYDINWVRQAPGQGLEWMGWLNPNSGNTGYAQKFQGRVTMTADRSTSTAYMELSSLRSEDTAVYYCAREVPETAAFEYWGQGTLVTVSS VL: QSVLTQPPSVSGAPGQRVTISCTSSSSDIGAGLGVHWYQQLPGTAPKLLIEGYYNRPSGVPDRFSGSKSGTSASLTITGLLPEDEGDYYCQSYDYTLSALFGGGTKLTVLG | 127

Below: the item to evaluate.
INPUT: What value of TL1A Binding Level (Late) has been reported for the following binder? 320-317 (antibody, human IgG1, name in Kabat numbering, V domains shown, human IgG1, lambda) VH: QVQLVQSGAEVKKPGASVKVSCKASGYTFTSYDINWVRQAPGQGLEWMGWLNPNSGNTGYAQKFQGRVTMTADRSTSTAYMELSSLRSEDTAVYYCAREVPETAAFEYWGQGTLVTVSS VL: QSVLTQPPSVSGAPGQRVTISCTSSSSDIGAGLGVHWYQQLPGTAPKLLIEGYYNRPSGVPDRFSGSKSGTSASLTITGLLPEDEGDYYCYSYDGTLSALFGGGTKLTVLG
OUTPUT: 83
